# system.name: c-kit kinase (Homo sapiens)
# Construct: The c-kit (or kinase domain thereof) is an active kinase in AlphaScreen; poly-Histidine tag (in-house protein only) (cleaved yes); host or cells: E. coli BL21(DE3)RIL, co-expressed with PTP1B
# Sequence (P10721 26-976): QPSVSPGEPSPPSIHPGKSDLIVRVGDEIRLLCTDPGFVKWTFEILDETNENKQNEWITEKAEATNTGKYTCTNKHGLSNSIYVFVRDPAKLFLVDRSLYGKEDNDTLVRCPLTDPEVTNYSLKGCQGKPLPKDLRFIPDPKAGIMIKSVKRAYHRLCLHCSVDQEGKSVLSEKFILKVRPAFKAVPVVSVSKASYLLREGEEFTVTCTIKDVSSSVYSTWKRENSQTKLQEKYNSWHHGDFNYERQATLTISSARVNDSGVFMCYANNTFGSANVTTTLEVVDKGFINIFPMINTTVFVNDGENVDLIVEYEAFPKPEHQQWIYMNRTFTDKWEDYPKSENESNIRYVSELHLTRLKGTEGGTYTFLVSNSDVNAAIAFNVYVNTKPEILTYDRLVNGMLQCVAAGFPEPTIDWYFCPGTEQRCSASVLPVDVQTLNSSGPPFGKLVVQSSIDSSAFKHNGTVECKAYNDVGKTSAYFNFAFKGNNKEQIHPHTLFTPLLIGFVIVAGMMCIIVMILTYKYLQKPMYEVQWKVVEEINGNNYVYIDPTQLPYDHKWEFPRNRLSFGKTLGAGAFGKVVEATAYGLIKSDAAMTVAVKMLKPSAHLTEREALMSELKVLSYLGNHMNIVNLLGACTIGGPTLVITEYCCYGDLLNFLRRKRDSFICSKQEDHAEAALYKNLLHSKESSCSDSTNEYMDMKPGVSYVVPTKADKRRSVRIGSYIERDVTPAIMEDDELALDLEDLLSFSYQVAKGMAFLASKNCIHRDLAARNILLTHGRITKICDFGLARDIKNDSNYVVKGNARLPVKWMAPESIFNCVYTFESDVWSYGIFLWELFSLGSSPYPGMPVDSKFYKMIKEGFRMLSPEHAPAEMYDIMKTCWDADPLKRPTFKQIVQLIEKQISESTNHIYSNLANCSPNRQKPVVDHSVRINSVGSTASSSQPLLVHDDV
# experimental.details: c-Kit biochemical assay, AlphaScreen, 10 μM ATP
# measurement.setup: c-kit biochemical inhibitory activity; read-out: Biochemical activity (IC50 μM) Kit
# Protocol: IC50 values are determined with respect to inhibition of c-Kit kinase activity, where inhibition of phosphorylation of a peptide substrate is measured as a function of compound concentration. Compounds to be tested were dissolved in DMSO to a concentration of 20 mM. These were diluted 30 μl into 120 μl of DMSO (4 mM) and 1 μl was added to an assay plate. […] The samples were incubated for 60 minutes at room temperature and the signal per well was read on AlphaQuest reader. […]
Recorded IC50 values for a group of compounds are listed next.

1. C[C@H](NC(=O)N1CCN(c2ncnc3[nH]c(-c4ccc(F)cc4)cc23)CC1(C)C)c1cccc(Cl)c1	1 to 10 µM

Measured IC50, COc1ccc(NC(=O)N2CCN(c3ncnc4[nH]ccc34)CC2)cc1OC : 10 to 200 µM

Kindly note the recorded IC50 for COc1cccc([C@@H](C)NC(=O)N2CCN(c3ncnc4cc(-c5ccc(F)cc5)sc34)C[C@H]2C)c1 , which is 10 to 200 µM

Sure, the documented IC50 for C[C@H](NC(=O)N1CCN(c2ncnc3cc(-c4ccc(F)cc4)sc23)CC1(C)C)c1ccc(F)cc1 is 10 to 200 µM

Value of measured IC50 for the entry Cc1ccc(S(=O)(=O)Nc2ccc(-c3ncnc4cc(C5=CCN(C(=O)OC(C)(C)C)CC5)sc34)cc2)cc1 : 1 to 10 µM

Form field IC50, entry COCCOc1cc2ncnc(-c3ccc(NS(=O)(=O)c4ccc(OC)cc4)cc3F)c2cc1OCCOC : 0.0001 to 1 µM
